- experimental_target: T1, hPD-1 (Sino Biological Inc., Catalog No.: 10377-H03H-B) (human, UniProt Q15116 25-167)
- T1 construct: Bought protein; also called human PD-1; purified hPD-1
- T1 sequence (Q15116 25-167): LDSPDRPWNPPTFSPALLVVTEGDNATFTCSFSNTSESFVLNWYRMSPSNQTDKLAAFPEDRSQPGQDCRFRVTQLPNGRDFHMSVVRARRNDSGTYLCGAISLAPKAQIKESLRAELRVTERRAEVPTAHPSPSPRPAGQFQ
- test_protocol: BLI (Octet) as in Example 4, biotinylated hPD-1 on streptavidin biosensor
- Protocol: A streptavidin biosensor was pre-wetted by immersing in PBS in a well for 10 minutes, and then the biosensor was equilibrated with PBS for 2 minutes. […] The biosensors were placed in wells containing antibody solutions of various concentrations (0.125 to 2 nM, SDS-PAGE purity >99%) to observe their binding to the anti-PD-1 antibody, and the binding was monitored and measured for 30 minutes. After the biosensor was transferred to PBS, dissociation was monitored and measured for 90 minutes. […]
# key: entry, value: pKd
Here pKd is given on a logarithmic scale as minus log10 of the concentration in mol/L.

Recorded pKd, per entry:
- binder: "antibody CL1 (antibody, human IgG4 S228P, kappa, V domains shown, also called anti-hPD-1 antibody CL1; CL1 VH / CL1 VL IgG4) VH: QVQLVQSGVEVKKPGASVKVSCKASGYTFTNYYMYWVRQAPGQGLEWMGGINPSNGGTNFNEKFKNRVTLTTDSSTTTAYMELKSLQFDDTAVYYCAARDYRLDMGFEFWGQGTTVTVSS VL: EIVLTQSPATLSLSPGERATLSCRASKGVSTSGYSYLHWYQQKPGQAPRLLIYLASYLESGVPARFSGSGSGTDFTLTISSLEPEDFAVYYCQHAYDLPLTFGGGTKVEIKR"
  value_measured: 10.68
- binder: "CL1 VH (SEQ ID NO: 7) / CL7 VL (SEQ ID NO: 40), IgG4 (antibody, V domains shown, Form IgG4) VH: QVQLVQSGVEVKKPGASVKVSCKASGYTFTNYYMYWVRQAPGQGLEWMGGINPSNGGTNFNEKFKNRVTLTTDSSTTTAYMELKSLQFDDTAVYYCAARDYRLDMGFEFWGQGTTVTVSS VL: EIVLTQSPATLSLSPGERATLSCRASKGVSTSGYSYLHWYQQKPGQAPRLLIYLASYLESGVPARFSGSGSGTDFTLTISSLEPEDFAVYYCQHSYSFPLTFGGGTKVEIK"
  value_measured: 10.21

Prompt line: Recall and state the measured pKd for CL1 VH (SEQ ID NO: 7) / CL5 VL (SEQ ID NO: 10), IgG4 (antibody, V domains shown, Form IgG4) VH: QVQLVQSGVEVKKPGASVKVSCKASGYTFTNYYMYWVRQAPGQGLEWMGGINPSNGGTNFNEKFKNRVTLTTDSSTTTAYMELKSLQFDDTAVYYCAARDYRLDMGFEFWGQGTTVTVSS VL: EIVLTQSPATLSLSPGERATLSCRASKGVSTSGYSYLHWYQQKPGQAPRLLIYLASYLESGVPARFSGSGSGTDFTLTISSLEPEDFAVYYCQHSYDLPLTFGGGTKVEIK .
Response line: 10.12

Prompt line: Recall and state the measured pKd for CL1 VH (SEQ ID NO: 7) / CL9 VL (SEQ ID NO: 12), IgG4 (antibody, V domains shown, Form IgG4) VH: QVQLVQSGVEVKKPGASVKVSCKASGYTFTNYYMYWVRQAPGQGLEWMGGINPSNGGTNFNEKFKNRVTLTTDSSTTTAYMELKSLQFDDTAVYYCAARDYRLDMGFEFWGQGTTVTVSS VL: EIVLTQSPATLSLSPGERATLSCRASKGVSTSGYSYLHWYQQKPGQAPRLLIYLASYLESGVPARFSGSGSGTDFTLTISSLEPEDFAVYYCQHSYGLPVTFGGGTKVEIK .
Response line: 9.64
